Test system: tissue PDH activity
Experiment: Ex vivo PDH activation assay (liver and epididymal adipose tissue after oral administration)
Type: in vivo, Sprague-Dawley rats
Conditions: adipose tissue, 20 hr after oral administration, 3 mg/kg, rat; mean ± standard deviation
Entries annotated with measured PDHa activity (% PDHt activity)

[
  {
    "compound": "CC(C)(O)COc1cc(-c2cnn(CCO)c2)c2c(c1)[C@@](O)(C(F)(F)F)c1ccccc1-2 [compound (C)]",
    "PDHa activity (% PDHt activity)": "28 ± 7 % PDHt activity"
  },
  {
    "compound": "CC(C)(O)CCOc1cc(-c2cnn(CC(C)(C)O)c2)c2c(c1)[C@@](O)(C(F)(F)F)c1ccccc1-2 [compound (3)]",
    "PDHa activity (% PDHt activity)": "40 ± 3 % PDHt activity"
  },
  {
    "compound": "Cn1cc(-c2cc(OCC(C)(C)O)cc3c2-c2ccccc2[C@]3(O)C(F)(F)F)cn1 [compound (B), reference compound]",
    "PDHa activity (% PDHt activity)": "30 ± 4 % PDHt activity"
  }
]
